# System: rodent lifetime carcinogenesis bioassay, tumor incidence TD50
# test: carcinogenic potency in animals, long-term in vivo studies, CPDB compilation (AID 1745844)
# condition parameters: mouse; strain B6C3F1; males; in feed; site: lung; lesion: alveolar/bronchiolar carcinoma; dosed 103 weeks; study length 104 weeks
endpoint: TD50

State its TD50 for this compound: O=P(OCC(Br)CBr)(OCC(Br)CBr)OCC(Br)CBr (stereo unspecified)
449 mg/kg/day

###

# Test system: rodent lifetime carcinogenesis bioassay, tumor incidence TD50
# test: carcinogenic potency in animals, long-term in vivo studies, CPDB compilation (AID 1745844)
# condition parameters: mouse; strain B6C3F1; females; in feed; site: liver; lesion: hepatocellular carcinoma; dosed 78 weeks; study length 95 weeks
endpoint: TD50

Record excerpt, results attached:
[O-]/[N+](=N\O)c1ccccc1    564 mg/kg/day
c1ccc(NNc2ccccc2)cc1    29.7 mg/kg/day
CCn1c2ccccc2c2cc(N)ccc21    33 mg/kg/day
O=[N+]([O-])c1ccc2nc[nH]c2c1    762 mg/kg/day
Nc1ccc(Cl)cc1N    5060 mg/kg/day

State its TD50 for this molecule: Nc1ccc(Cl)c(N)c1
1780 mg/kg/day

###

# Tested on: rodent lifetime carcinogenesis bioassay, tumor incidence TD50
# test: carcinogenic potency in animals, long-term in vivo studies, CPDB compilation (AID 1745844)
# condition parameters: rat; strain Fischer 344; males; in drinking water; site: duodenum + ileum + jejunum; lesion: mucinous cystadenocarcinoma + adenocarcinoma; dosed 58 weeks; study length 60 weeks
endpoint: TD50 (mg/kg/day)
Give bare numbers, in mg/kg/day.

State its TD50 for this compound: Cc1cc(-c2ccc(N)c(C)c2)ccc1N
7.79

###

# System: rodent lifetime carcinogenesis bioassay, tumor incidence TD50
# test: carcinogenic potency in animals, long-term in vivo studies, CPDB compilation (AID 1745844)
# condition parameters: rat; strain Fischer 344; females; in drinking water; site: upper gastrointestinal tract; lesion: several types; types named in the paper; dosed 60 weeks; study length 82 weeks
endpoint: TD50

Provide TD50, tested on rodent lifetime carcinogenesis bioassay, tumor incidence TD50, for O=NN1CCCN(N=O)CC1 .
0.0297 mg/kg/day

###

# Test system: rodent lifetime carcinogenesis bioassay, tumor incidence TD50
# test: carcinogenic potency in animals, long-term in vivo studies, CPDB compilation (AID 1745844)
# condition parameters: rat; strain Fischer 344; females; in drinking water; site: pharynx; lesion: squamous-cell papilloma; dosed 98 weeks; study length 104 weeks
endpoint: TD50 (mg/kg/day)
Answers are plain numbers, in mg/kg/day.

State its TD50 for this compound: Cc1ccc(S(=O)(=O)Oc2ccc(N=Nc3ccc(-c4ccc(N=Nc5c(O)ccc6cc(S(=O)(=O)O)cc(S(=O)(=O)O)c56)c(C)c4)cc3C)cc2)cc1
72.4

###

# System: rodent lifetime carcinogenesis bioassay, tumor incidence TD50
# test: carcinogenic potency in animals, long-term in vivo studies, CPDB compilation (AID 1745844)
# condition parameters: mouse; strain C3H/HeN-MTV-/Nctr (MTV-); females; in feed; site: mammary gland; lesion: several types; types named in the paper; dosed 107 weeks; study length 107 weeks
endpoint: TD50

Provide TD50, tested on rodent lifetime carcinogenesis bioassay, tumor incidence TD50, for CC/C(=C(/CC)c1ccc(O)cc1)c1ccc(O)cc1 .
0.0247 mg/kg/day

###

# Test system: rodent lifetime carcinogenesis bioassay, tumor incidence TD50
# test: carcinogenic potency in animals, long-term in vivo studies, CPDB compilation (AID 1745844)
# condition parameters: mouse; strain Swiss; females; in drinking water; site: lung; lesion: adenoma; dosed 50 weeks; study length 51 weeks
endpoint: TD50 (mg/kg/day)
One number for each entry, in mg/kg/day.

Provide TD50, tested on rodent lifetime carcinogenesis bioassay, tumor incidence TD50, for NC(=O)N(CCO)N=O .
1.97

###

# Tested on: rodent lifetime carcinogenesis bioassay, tumor incidence TD50
# test: carcinogenic potency in animals, long-term in vivo studies, CPDB compilation (AID 1745844)
# condition parameters: rat; strain Fischer 344; males; in feed; site: all sites; lesion: mononuclear-cell leukemia; dosed 104 weeks; study length 104 weeks
endpoint: TD50 (mg/kg/day)
Answers are plain numbers, in mg/kg/day.

State its TD50 for this molecule: CN(C)CCOC(C)(c1ccccc1)c1ccccn1 (stereo unspecified)
271

###

# Tested on: rodent lifetime carcinogenesis bioassay, tumor incidence TD50
# test: carcinogenic potency in animals, long-term in vivo studies, CPDB compilation (AID 1745844)
# condition parameters: rat; strain Fischer 344; females; by gavage; site: pancreatic islets; lesion: islet-cell adenoma; dosed 106 weeks; study length 108 weeks
endpoint: TD50

State its TD50 for this compound: Cc1ccc(N=C=O)cc1N=C=O
135 mg/kg/day

###

# Test system: rodent lifetime carcinogenesis bioassay, tumor incidence TD50
# test: carcinogenic potency in animals, long-term in vivo studies, CPDB compilation (AID 1745844)
# condition parameters: hamster; strain Syrian Golden; females; in drinking water; site: liver; lesion: several types; types named in the paper; dosed 79 weeks; study length 79 weeks
endpoint: TD50 (mg/kg/day)
Numbers only, in mg/kg/day.

Provide TD50, tested on rodent lifetime carcinogenesis bioassay, tumor incidence TD50, for CN(C)N .
620

###

Please go through the items and note down their TD50.
# Tested on: rodent lifetime carcinogenesis bioassay, tumor incidence TD50
# test: carcinogenic potency in animals, long-term in vivo studies, CPDB compilation (AID 1745844)
# condition parameters: mouse; strain B6C3F1; females; in feed; site: lung; lesion: alveolar/bronchiolar adenoma + alveolar/bronchiolar carcinoma; dosed 78 weeks; study length 96 weeks
Numbers only, in mg/kg/day.

Record excerpt, results attached:
O=[N+]([O-])c1ccc2c3c(cccc13)CC2    1320
COc1ccc(N)cc1N    10900

State its TD50 for this molecule: O=[N+]([O-])c1cccc2ccccc12
682

###

# Test system: rodent lifetime carcinogenesis bioassay, tumor incidence TD50
# test: carcinogenic potency in animals, long-term in vivo studies, CPDB compilation (AID 1745844)
# condition parameters: mouse; strain C57BL; both sexes; in feed; site: pituitary gland; lesion: adenoma; dosed 73 weeks; study length 73 weeks
endpoint: TD50

State its TD50 for this compound: CCCc1cc(=O)[nH]c(=S)[nH]1
409 mg/kg/day

###

# System: rodent lifetime carcinogenesis bioassay, tumor incidence TD50
# test: carcinogenic potency in animals, long-term in vivo studies, CPDB compilation (AID 1745844)
# condition parameters: rat; strain Fischer 344; males; in feed; site: urinary bladder; lesion: several types; types named in the paper; dosed 30 weeks; study length 52 weeks
endpoint: TD50

Provide TD50, tested on rodent lifetime carcinogenesis bioassay, tumor incidence TD50, for O=CNc1nc(-c2ccc([N+](=O)[O-])o2)cs1 .
1.31 mg/kg/day

###

# Tested on: rodent lifetime carcinogenesis bioassay, tumor incidence TD50
# test: carcinogenic potency in animals, long-term in vivo studies, CPDB compilation (AID 1745844)
# condition parameters: rat; strain Fischer 344; females; in feed; site: mammary gland; lesion: one or several types; types not named; dosed 53 weeks; study length 78 weeks
endpoint: TD50

Provide TD50, tested on rodent lifetime carcinogenesis bioassay, tumor incidence TD50, for Cn1c(N)nc2c3cccnc3ccc21 .
3.52 mg/kg/day

###

# System: rodent lifetime carcinogenesis bioassay, tumor incidence TD50
# test: carcinogenic potency in animals, long-term in vivo studies, CPDB compilation (AID 1745844)
# condition parameters: rat; strain Fischer 344; males; in drinking water; site: Zymbal's gland; lesion: one or several types; types not named; dosed 30 weeks; study length 104 weeks
endpoint: TD50 (mg/kg/day)
Answers are plain numbers, in mg/kg/day.

State its TD50 for this compound: CCN(N=O)C(=O)NCC(C)=O
1.13

###

# Test system: rodent lifetime carcinogenesis bioassay, tumor incidence TD50
# test: carcinogenic potency in animals, long-term in vivo studies, CPDB compilation (AID 1745844)
# condition parameters: rat; strain Fischer 344; males; in feed; site: thyroid gland; lesion: c-cell carcinoma, bilateral + c-cell carcinoma; dosed 104 weeks; study length 105 weeks
endpoint: TD50 (mg/kg/day)
Numbers only, in mg/kg/day.

State its TD50 for this molecule: OCC(CO)(CBr)CBr
1920

###

# Test system: rodent lifetime carcinogenesis bioassay, tumor incidence TD50
# test: carcinogenic potency in animals, long-term in vivo studies, CPDB compilation (AID 1745844)
# condition parameters: mouse; strain CDF1; females; in feed; site: all sites; lesion: lymphoma and leukemia, combined; dosed 84 weeks; study length 84 weeks
endpoint: TD50 (mg/kg/day)
Numbers only, in mg/kg/day.

State its TD50 for this molecule: Cc1cnc2ccc3c(nc(N)n3C)c2n1
6820

###

# Tested on: rodent lifetime carcinogenesis bioassay, tumor incidence TD50
# test: carcinogenic potency in animals, long-term in vivo studies, CPDB compilation (AID 1745844)
# condition parameters: mouse; strain B6C3F1; males; in feed; site: any site (literature study); lesion: malignant tumor; dosed 80 weeks; study length 90 weeks
endpoint: TD50

State its TD50 for this compound: Cc1c([N+](=O)[O-])c(C)c([N+](=O)[O-])c(C(C)(C)C)c1[N+](=O)[O-]
334 mg/kg/day

This collection of values is drawn from PubChem BioAssay AID1745844.
